Provide the reported emission maximum of each item.
# protocolSummary: solvent given as SMILES
# conditionLabel: in CCCCCC
Give bare numbers, in nm.

Quick request: emission maximum for each listed item, please.
1. C[Si](C)(C)c1ccc2ccc3cccc4ccc1c2c34
2. CCC1(CC)c2cc(B(c3c(C)cc(C)cc3C)c3c(C)cc(C)cc3C)ccc2-c2c1c1c(c3c2C(CC)(CC)c2cc(B(c4c(C)cc(C)cc4C)c4c(C)cc(C)cc4C)ccc2-3)C(CC)(CC)c2cc(B(c3c(C)cc(C)cc3C)c3c(C)cc(C)cc3C)ccc2-1
3. CCCCCCCCC1(CCCCCCCC)c2cc(-c3ccc(C(F)(F)F)cc3)ccc2-c2ccc(N(c3ccc(-n4c5ccccc5c5ccccc54)cc3)c3ccc4c(c3)C(CCCCCCCC)(CCCCCCCC)c3cc(-c5ccc(C(F)(F)F)cc5)ccc3-4)cc21
4. c1ccc2c(c1)CCc1c-2cnc2c1-c1ccccc1CC2
5. CCN(CC)c1ccc2ccc(=O)oc2c1
6. F[B-]1(F)n2c(nc(Br)c2Br)-c2cccc[n+]21
7. COc1cc(OC)cc(C2=[O+][B-](F)(F)OC(c3ccc4cc(OC)ccc4c3)=C2)c1

Ans:
1. 346
2. 382
3. 416
4. 358
5. 392
6. 464
7. 430.95

Q: Which measured emission maximum value corresponds to CCN(CC)c1ccc(OC)c(C=O)c1 ?
Ans: 470
